Provenance of the data: patent US20250376472A1

Biological target: AgrA (Staphylococcus aureus, UniProt P0A0I7)
Construct: endogenous in cells; host or cells: S. aureus USA300 strain UAMS-1625 carrying a P3-lacZ reporter plasmid
Sequence (P0A0I7 whole entry): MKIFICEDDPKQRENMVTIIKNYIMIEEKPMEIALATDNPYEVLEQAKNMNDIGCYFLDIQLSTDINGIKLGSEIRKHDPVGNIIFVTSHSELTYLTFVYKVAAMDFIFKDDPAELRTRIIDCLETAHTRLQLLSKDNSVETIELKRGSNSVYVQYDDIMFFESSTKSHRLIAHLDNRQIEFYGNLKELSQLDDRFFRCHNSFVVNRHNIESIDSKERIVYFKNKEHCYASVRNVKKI
Test: cell-based
Parameters: species or system S. aureus
Settings: IC50 at 40 mg/mL HSA, LB medium supplemented with human serum albumin 40 mg/mL

| molecule | IC50 |
| --- | --- |
| Cc1ccc(S(=O)(=O)c2nnn3c2[nH]c(=O)c2ccc(N4CCN(CC(=O)NCc5cccc(O)c5)CC4)cc23)c(C)c1 [Compound 108] | 16.6 to 83.1 µM |
| Cc1ccc(S(=O)(=O)c2nnn3c2[nH]c(=O)c2ccc(N4CCN(CC(=O)NCCCC(F)(F)F)CC4)cc23)c(C)c1 [Compound 15] | 16.5 to 82.6 µM |
| Cc1ccc(S(=O)(=O)c2nnn3c2[nH]c(=O)c2ccc(N4CCCN(CC(=O)N5CCCCC5)CC4)cc23)c(C)c1 [Compound 85] | 17.3 to 86.5 µM |
| CCCCCCNC(=O)CN1CCN(c2ccc3c(=O)[nH]c4c(S(=O)(=O)c5ccc(C)cc5C)nnn4c3c2)CC1 [Compound 12] | 17.2 to 86.2 µM |
| Cc1ccc(S(=O)(=O)c2nnn3c2[nH]c(=O)c2ccc(N4CCN(CC(=O)N5CCC5)CC4)cc23)c(C)c1 [Compound 54] | 18.7 to 93.3 µM |
| Cc1ccc(S(=O)(=O)c2nnn3c2[nH]c(=O)c2ccc(N4CCN(CC(=O)NCC5CCCCC5)CC4)cc23)c(C)c1 [Compound 40] | < 16.9 µM |
| Cc1ccc(S(=O)(=O)c2nnn3c2[nH]c(=O)c2ccc(N4CCN(CC(=O)N5CCC(CN)C5)CC4)cc23)c(C)c1 (centres unmarked) [Compound 137] | 17.3 to 86.4 µM |
| Cc1ccc(S(=O)(=O)c2nnn3c2[nH]c(=O)c2ccc(N4CCN(CC(=O)N5CCCN(C(C)C)CC5)CC4)cc23)c(C)c1 [Compound 70] | 16.1 to 80.5 µM |
| O=C(CN1CCN(c2ccc3c(=O)[nH]c4c(S(=O)(=O)c5ccc(C(F)(F)F)cc5)nnn4c3c2)CC1)N1CCOCC1 [Compound 169] | 16.5 to 82.6 µM |
| Cc1ccc(S(=O)(=O)c2nnn3c2[nH]c(=O)c2ccc(N4CCN(CC(=O)N5CCN(C(C)(C)C)CC5)CC4)cc23)c(C)c1 [Compound 59] | < 16.1 µM |
| Cc1ccc(S(=O)(=O)c2nnn3c2[nH]c(=O)c2ccc(N4CCN(CC(=O)NCCc5ccccc5)CC4)cc23)c(C)c1 [Compound 109] | 16.7 to 83.4 µM |
| Cc1ccc(S(=O)(=O)c2nnn3c2[nH]c(=O)c2ccc(N4CCCN(CC(=O)N5CCNCC5)CC4)cc23)c(C)c1 [Compound 161] | < 17.3 µM |
| Cc1ccc(S(=O)(=O)c2nnn3c2[nH]c(=O)c2ccc(N4CCN(CC(=O)NCc5ccccc5)CC4)cc23)c(C)c1 [Compound 106] | 17.1 to 85.4 µM |
| Cc1ccc(S(=O)(=O)c2nnn3c2[nH]c(=O)c2ccc(N4CCN(CC(=O)N5CC(N)C5)CC4)cc23)c(C)c1 [Compound 139] | < 18.2 µM |
| Cc1ccc(S(=O)(=O)c2nnn3c2[nH]c(=O)c2ccc(N4CCN(CC(=O)NC5CCCCC5)CC4)cc23)c(C)c1 [Compound 38] | 17.3 to 86.5 µM |
| O=C(CN1CCN(c2ccc3c(=O)[nH]c4c(S(=O)(=O)c5ccc(C(F)(F)F)cc5)nnn4c3c2)CC1)N1CCCC1 [Compound 164] | 17 to 84.8 µM |
| CCNC(=O)CN1CCN(c2ccc3c(=O)[nH]c4c(S(=O)(=O)c5ccc(C)cc5C)nnn4c3c2)CC1 [Compound 4] | < 19.1 µM |
| CCN1CCCC1CNC(=O)CN1CCN(c2ccc3c(=O)[nH]c4c(S(=O)(=O)c5ccc(C)cc5C)nnn4c3c2)CC1 (centres unmarked) [Compound 93] | < 16.5 µM |
| Cc1ccc(S(=O)(=O)c2nnn3c2[nH]c(=O)c2ccc(N4CCCN(CC(=O)NC5CCOCC5)CC4)cc23)c(C)c1 [Compound 103] | < 16.8 µM |
| Cc1ccc(S(=O)(=O)c2nnn3c2[nH]c(=O)c2ccc(N4CCN(CC(=O)N5CCC6(CCCC6)C5)CC4)cc23)c(C)c1 [Compound 126] | 16.6 to 82.8 µM |
| CCCNC(=O)CN1CCN(c2ccc3c(=O)[nH]c4c(S(=O)(=O)c5ccc(C)cc5C)nnn4c3c2)CC1 [Compound 5] | 18.6 to 93 µM |
| Cc1ccc(S(=O)(=O)c2nnn3c2[nH]c(=O)c2ccc(N4CCN(CC(=O)NCc5ccco5)CC4)cc23)c(C)c1 [Compound 113] | 17.4 to 86.9 µM |
| Cc1ccc(S(=O)(=O)c2nnn3c2[nH]c(=O)c2ccc(N4CCN(CC(=O)N5CCNC(=O)C5)CC4)cc23)c(C)c1 [Compound 62] | 17.3 to 86.4 µM |
| Cc1ccc(S(=O)(=O)c2nnn3c2[nH]c(=O)c2ccc(N4CCN(CC(=O)NCCCN5CCOCC5)CC4)cc23)c(C)c1 [Compound 92] | 16.1 to 80.3 µM |
| Cc1ccc(S(=O)(=O)c2nnn3c2[nH]c(=O)c2ccc(N4CCN(CC(=O)NCCN5CCOCC5)CC4)cc23)c(C)c1 [Compound 91] | 16.4 to 82.1 µM |
| Cc1ccc(S(=O)(=O)c2nnn3c2[nH]c(=O)c2ccc(N4CCN(CC(=O)N5CCCC(=O)CC5)CC4)cc23)c(C)c1 [Compound 72] | 16.9 to 84.5 µM |
